# System: Enterococcus sp.
# EXPERIMENT SUMMARY: in vitro antibacterial evaluation, MIC by broth dilution
# Type: cell-based
# DETAILS: broth dilution, 18 hours at 35° C.; strain GC 2243
# Text: Methods for in vitro Antibacterial Evaluation (Table 1) […]
Numbered stars: 1 amine (or outer) side, 2 acyl side, 3 side chain; on linkers, the order of the positions; unused ones are H or OH. Square brackets hold non-standard residues; d marks the D form. Peptide text beside a SMILES is read from it. * marks the point of attachment. ξ: configuration not given here. X1 = N=C1NCC(C(O)C(N[*:1])C(=O)[*:2])N1C1OC(CO)C(O)C(O)C1O; ξEnduracididine(βξ-OH,4'ξ) = N=C1NCC(C(O)C(N)C(=O)O)N1; ξPhe(4-Cl,βξ-Me) = CC(c1ccc(Cl)cc1)C(N)C(=O)O; X2 = OCC1OC(OC2C(CO)OC(*)C(O)C2O)C(O)C(O)C1O
MEASURED PARAMETER: MIC Enterococcus faecium (GC 2243)

compound="CC(c1ccccc1)C1NC(=O)CNC(=O)C(CO)NC(=O)C(C(O)C2CNC(=N)N2C2OC(CO)C(O)C(O)C2O)NC(=O)C(C(O)C2CNC(=N)N2)NC(=O)C(Cc2ccc(OC3OC(CO)C(OC4OC(CO)C(OCC=C(c5ccccc5)c5ccccc5)C(O)C4O)C(O)C3O)cc2)NC1=O (stereo not shown) [Example 241a]" measured_parameter="MIC Enterococcus faecium (GC 2243)" result="2 µg/mL"
compound="CC(c1ccccc1)C1NC(=O)CNC(=O)C(CO)NC(=O)C(C(O)C2CNC(=N)N2C2OC(CO)C(O)C(O)C2O)NC(=O)C(C(O)C2CNC(=N)N2)NC(=O)C(Cc2ccc(OC3OC(CO)C(OC4OC5COC6(OC5C(O)C4O)C4CC5CC(C4)CC6C5)C(O)C3O)cc2)NC1=O (stereo not shown)" measured_parameter="MIC Enterococcus faecium (GC 2243)" result="1 to 2 µg/mL"
compound="CCCCOC(=O)CCC1OCC2OC(OC3C(CO)OC(Oc4ccc(CC5NC(=O)C(C(C)c6ccccc6)NC(=O)CNC(=O)C(CO)NC(=O)C(C(O)C6CNC(=N)N6C6OC(CO)C(O)C(O)C6O)NC(=O)C(C(O)C6CNC(=N)N6)NC5=O)cc4)C(O)C3O)C(O)C(O)C2O1 (stereo not shown)" measured_parameter="MIC Enterococcus faecium (GC 2243)" result="4 µg/mL"
compound="CCC(CC)C1OCC2OC(OC3C(CO)OC(Oc4ccc(CC5NC(=O)C(C(C)c6ccccc6)NC(=O)CNC(=O)C(CO)NC(=O)C(C(O)C6CNC(=N)N6C6OC(CO)C(O)C(O)C6O)NC(=O)C(C(O)C6CNC(=N)N6)NC5=O)cc4)C(O)C3O)C(O)C(O)C2O1 (stereo not shown)" measured_parameter="MIC Enterococcus faecium (GC 2243)" result="2 µg/mL"
compound="CC(c1ccccc1)C1NC(=O)CNC(=O)C(CO)NC(=O)C(C(O)C2CNC(=N)N2C2OC(CO)C(O)C(O)C2O)NC(=O)C(C(O)C2CNC(=N)N2)NC(=O)C(Cc2ccc(OC3OC(CO)C(OC4OC5COC(CC(C)(C)C)OC5C(O)C4O)C(O)C3O)cc2)NC1=O (stereo not shown)" measured_parameter="MIC Enterococcus faecium (GC 2243)" result="4 µg/mL"
compound="CCCCCNC(=O)OC1C(CO)OC(OC2C(CO)OC(Oc3ccc(CC4NC(=O)C(C(C)c5ccccc5)NC(=O)CNC(=O)C(CO)NC(=O)C(C(O)C5CNC(=N)N5C5OC(CO)C(O)C(O)C5O)NC(=O)C(C(O)C5CNC(=N)N5)NC4=O)cc3)C(O)C2O)C(O)C1O (stereo not shown)" measured_parameter="MIC Enterococcus faecium (GC 2243)" result=">64 µg/mL"
compound="CC(C)CC(=O)OC1C(OC2C(CO)OC(Oc3ccc(CC4NC(=O)C(C(C)c5cccc(F)c5)NC(=O)CNC(=O)C(CO)NC(=O)C(C(O)C5CNC(=N)N5C5OC(CO)C(O)C(O)C5O)NC(=O)C(C(O)C5CNC(=N)N5)NC4=O)cc3)C(O)C2O)OC(CO)C(O)C1O (stereo not shown) [Example 264a]" measured_parameter="MIC Enterococcus faecium (GC 2243)" result=">64 µg/mL"
compound="N=C1NCC(C(O)C2NC(=O)C(Cc3ccc(OC4OC(CO)C(OC5OC(CO)C(O)C6OC7(OC56)C5CC6CC(C5)CC7C6)C(O)C4O)cc3)NC(=O)C(CC3CCCCC3)NC(=O)CNC(=O)C(CO)NC(=O)C(C(O)C3CNC(=N)N3C3OC(CO)C(O)C(O)C3O)NC2=O)N1 (stereo not shown) [Example 106a]" measured_parameter="MIC Enterococcus faecium (GC 2243)" result="4 µg/mL"
compound="CC(c1ccc(F)cc1)C1NC(=O)CNC(=O)C(CO)NC(=O)C(C(O)C2CNC(=N)N2C2OC(CO)C(O)C(O)C2O)NC(=O)C(C(O)C2CNC(=N)N2)NC(=O)C(Cc2ccc(OC3OC(CO)C(OC4OC(CO)C(O)C(O)C4O)C(O)C3O)cc2)NC1=O (stereo not shown) [Example 261a]" measured_parameter="MIC Enterococcus faecium (GC 2243)" result=">64 µg/mL"
compound="CC(c1ccc(Cl)cc1)C1NC(=O)CNC(=O)C(CO)NC(=O)C(C(O)C2CNC(=N)N2C2OC(CO)C(O)C(O)C2O)NC(=O)C(C(O)C2CNC(=N)N2)NC(=O)C(Cc2ccc(OC3OC(CO)C(OC4OC(CO)C(O)C(O)C4O)C(O)C3O)cc2)NC1=O (stereo not drawn) [Example 262a] (cyclo(G[ξPhe(4-Cl,βξ-Me)]Y(X2)[ξEnduracididine(βξ-OH,4'ξ)][X1]S); configuration not given here)" measured_parameter="MIC Enterococcus faecium (GC 2243)" result=">128 µg/mL"
